System: Septoria tritici—SEPTTR
Test: Leaf Blotch of Wheat, in vivo whole plant, 24 Hour Protectant
Settings: Zymoseptoria tritici, 24 h, 100 ppm spray, wheat, 24 hour protectant; control of fungal infection vs untreated plants; read-out: SEPTTR in vivo 1 Day Protectant
Here the recorded pest or weed control at 100 ppm is given for each entry.

Worked cases, answers included:
1) COc1ccnc(C(=O)N[C@H]2COC(=O)[C@H](Cc3ccccc3)[C@@H](OC(=O)NC(C)C)[C@H](C)OC2=O)c1O
25 to 74%
2) COc1ccnc(C(=O)Nc2ccc(Oc3cccc(Cl)c3)cc2)c1O
< 25%
3) COc1ccnc(C(=O)NC2CC(=O)OCC(C)COC2=O)c1O (stereo not shown)
< 25%

Attention now turns to another entry.
[ask] Given the entry COc1ccnc(C(=O)N[C@H]2COC(=O)[C@H](Cc3ccccc3)C[C@H](C)OC2=O)c1O , report its measured pest or weed control at 100 ppm.
[reply] 25 to 74%

// data source = patent US6706740B2
